test system: CYP3A4; assay: CYP induction (enzyme activity) in cryopreserved human hepatocytes, CYP3A4; type: in vitro ADME; details: human, plated cryopreserved human hepatocytes, donor two, 1.5 µM
MEASURED ENDPOINT: fold induction at 72 h, 1.5 µM
Field format: numeric only.

Give the reported fold induction at 72 h, 1.5 µM for this compound. C[C@]12CC[C@@H]3c4ccc(B(O)O)cc4C[C@@H](CCCCCCCCC[S+]([O-])CCCC(F)(F)C(F)(F)F)[C@H]3[C@@H]1CC[C@@H]2O (stereo partly shown) [ZB716, fulvestrant-3-boronic acid]
1.43

* * *

test: Single-dose PK and bioavailability of ZB716 in rats; type: in vivo; conditions: female, Sprague Dawley, rat, plasma; single dose, PO 30 mg/kg/day, F
MEASURED ENDPOINT: AUC(0-t)
Number first, unit second.

Tell me its AUC(0-t) given C[C@]12CC[C@@H]3c4ccc(B(O)O)cc4C[C@@H](CCCCCCCCC[S+]([O-])CCCC(F)(F)C(F)(F)F)[C@H]3[C@@H]1CC[C@@H]2O (stereo partly shown) [ZB716, fulvestrant-3-boronic acid] as the entry.
15700 ng·h/mL

* * *

assay: 4-week repeat-dose toxicity/TK study in dogs; type: in vivo, beagle dogs; settings: male, beagle, dog, plasma, po, 200 mg/kg/day, day 1, PO 200 mg/kg/day, M
MEASURED ENDPOINT: Cmax

Note Cmax for the compound shown: C[C@]12CC[C@@H]3c4ccc(B(O)O)cc4C[C@@H](CCCCCCCCC[S+]([O-])CCCC(F)(F)C(F)(F)F)[C@H]3[C@@H]1CC[C@@H]2O (stereo partly shown) [ZB716, fulvestrant-3-boronic acid]
1040 ng/mL

* * *

test system: CYP3A4; assay: CYP induction (enzyme activity) in cryopreserved human hepatocytes, CYP3A4; type: in vitro ADME; conditions: human, plated cryopreserved human hepatocytes, donor one, 30 µM
MEASURED ENDPOINT: fold induction at 72 h, 30 µM
Respond numerically, and do not add a unit to the figure.

Note down fold induction at 72 h, 30 µM recorded for CCOC(=O)c1ncn2c1CN(C)C(=O)c1cc(F)ccc1-2 [Flumazenil, flumazenil, reference compound]
1.06

* * *

assay: 7-day repeated-dose PK in rats; assay type: in vivo, Sprague Dawley rats; settings: female, Sprague Dawley, rat, plasma, po, 10 mg/kg/day, day 7, PO 10 mg/kg/day, F; read-out: Tmax (median)
MEASURED ENDPOINT: Tmax
# do not omit the unit; it follows the number

Retrieve Tmax measured for C[C@]12CC[C@@H]3c4ccc(B(O)O)cc4C[C@@H](CCCCCCCCC[S+]([O-])CCCC(F)(F)C(F)(F)F)[C@H]3[C@@H]1CC[C@@H]2O (stereo partly shown) [ZB716, fulvestrant-3-boronic acid] and print it.
30 min

* * *

experiment: 7-day repeated-dose TK in dogs; assay type: in vivo; details: male, beagle, dog, plasma, po, 100 mg/kg/day, day 1, PO 100 mg/kg/day, M
MEASURED ENDPOINT: Cmax (ng/mL)
Express your answer in ng/mL, writing the number without its unit.

Recall and state the measured Cmax for C[C@]12CC[C@@H]3c4ccc(B(O)O)cc4C[C@@H](CCCCCCCCC[S+]([O-])CCCC(F)(F)C(F)(F)F)[C@H]3[C@@H]1CC[C@@H]2O (stereo partly shown) .
1350
